# maps each entry to its melting point
observable: melting point

INSERT INTO assay_data (molecule, value_reported) VALUES
  ('COCC1=NOC(c2ccc(-c3noc(C(F)(F)F)n3)cc2)C1 (stereo not drawn)', '59 to 63 °C'),
  ('O=C(C1CC1)N(C(=O)C1CC1)c1cc(-c2ccc(-c3noc(C(F)(F)F)n3)cc2)ccn1', '120 to 125 °C'),
  ('FC(F)(F)C1=NOC(c2ccc(-c3noc(C(F)(F)F)n3)cc2)C1 (stereo not drawn)', '65 to 69 °C'),
  ('CCC1=NOC(c2ccc(-c3noc(C(F)(F)F)n3)cc2)C1 (stereo not drawn)', '75 to 80 °C'),
  ('FC(F)(F)c1nc(-c2ccc(-c3nc(CCl)co3)cc2)no1', '106 to 107 °C'),
  ('CC1=NOC(c2ccc(-c3noc(C(F)(F)F)n3)cc2)C1 (stereo not drawn)', '89 to 92 °C'),
  ('FC(F)(F)c1nc(-c2ccc(-c3ncco3)cc2)no1', '94 to 97 °C'),
  ('Nc1cccc(-c2ccc(-c3noc(C(F)(F)F)n3)cc2)n1', '135 to 140 °C'),
  ('CC1(C)CN=C(c2ccc(-c3noc(C(F)(F)F)n3)cc2)O1', '178 to 180 °C'),
  ('CCNC(=O)Nc1cc(-c2ccc(-c3noc(C(F)(F)F)n3)cc2)ccn1', '180 to 185 °C'),
  ('FC(F)(F)c1nc(-c2ccc(-c3ccnc(N4CCOCC4)c3)cc2)no1', '95 to 100 °C'),
  ('FC(F)(F)c1nc(-c2ccc(-c3ccc(N4CCOCC4)nc3)cc2)no1', '150 to 155 °C'),
  ('O=C(Nc1ccc(-c2ccc(-c3noc(C(F)(F)F)n3)cc2)cn1)C(F)(F)F', '135 to 140 °C'),
  ('COCC(=O)NC1CSC(c2ccc(-c3noc(C(F)(F)F)n3)c(F)c2)=N1 (stereo not drawn)', '141 to 175 °C'),
  ('O=C(Nc1cccc(-c2ccc(-c3noc(C(F)(F)F)n3)cc2)n1)C1CC1', '125 to 130 °C'),
  ('O=C(C1CC1)N(C(=O)C1CC1)c1ccc(-c2ccc(-c3noc(C(F)(F)F)n3)cc2)cn1', '150 to 155 °C'),
  ('O=C(Nc1ccc(-c2ccc(-c3noc(C(F)(F)F)n3)cc2)cn1)C1CC1', '175 to 180 °C'),
  ('CC1(C)COC(c2ccc(-c3noc(C(F)(F)F)n3)cc2)=N1', '70 to 75 °C');
